Reference source: patent US12077483B2

experiment: pKa of amine lipid by TNS fluorescence; type: physicochemical; conditions: probe TNS (6-(p-toluidino)-2-naphthalenesulfonic acid sodium salt), unformulated amine lipid in ethanol, sodium phosphate buffers -9.0
Quantity name: pKa

CCCCC/C=C\C/C=C\CCCCCCCC(=O)OCC(COC(=O)CCCCCCC/C=C\C/C=C\CCCCC)OC(=O)CCC(CC(CC)CC)OC(=O)NCCN(C)CC (stereo not drawn) ... 6.09
CCCCC/C=C\C/C=C\CCCCCCCC(=O)OCC(COC(=O)CCCCCCCC(=O)OCCCCCCCCCCC)OC(=O)CC(CCCCCCCC)OC(=O)NCCN(C)CC (stereo not drawn) ... 6.32
CCCCC/C=C\C/C=C\CCCCCCCC(=O)OCC(COC(=O)CCCCCCC/C=C\C/C=C\CCCCC)OC(=O)CCC(CCCCCCCCCCCC)OC(=O)OC1CCN(CC)CC1 (stereo not drawn) ... 5.37
CCCCC/C=C\C/C=C\CCCCCCCC(=O)OCC(COC(=O)CCCCCCC/C=C\C/C=C\CCCCC)OC(=O)CCC(CCCCCCCCCCCC)OC(=O)NCCN(C)C (stereo not drawn) ... 6.82
CCCCC/C=C\C/C=C\CCCCCCCC(=O)OCC(COC(=O)CCCCCCC/C=C\C/C=C\CCCCC)OC(=O)CCC(CCCCCCCCCCCC)OC(=O)OCCCN(C)CC (stereo not drawn) ... 5.89
CCCCC/C=C\C/C=C\CCCCCCCC(=O)OCC(COC(=O)CCC(CCCC)OC(=O)NCCN1CCCC1)OC(=O)CCCCCCC/C=C\C/C=C\CCCCC (stereo not drawn) ... 7.02
CCCCC/C=C\C/C=C\CCCCCCCC(=O)OCC(COC(=O)CCCCCCC/C=C\C/C=C\CCCCC)OC(=O)CCC(CCCC)OC(=O)OCCCN1CCCC1 (stereo not drawn) ... 6.32
CCCCC/C=C\C/C=C\CCCCCCCC(=O)OCC(COC(=O)CCCCCCC/C=C\C/C=C\CCCCC)OC(=O)CCC(CCCCCCCC)OC(=O)NCCN(C)CC (stereo not drawn) ... 6.36
CCCCC/C=C\C/C=C\CCCCCCCC(=O)OCC(COC(=O)CCCCCCC/C=C\C/C=C\CCCCC)OC(=O)NCCN(C)CC [Compound 114, reference compound] ... 6.93
CCCCC/C=C\C/C=C\CCCCCCCC(=O)OCC(COC(=O)CCCCCCC/C=C\C/C=C\CCCCC)OC(=O)CCC(CCCCCCCC)OC(=O)N(C)CCN(C)CC (stereo not drawn) ... 5.36
CCCCC/C=C\C/C=C\CCCCCCCC(=O)OCC(COC(=O)CCCCCCC/C=C\C/C=C\CCCCC)OC(=O)CCC(CCCCCC(C)C)OC(=O)NCCN1CCCC1 (stereo not drawn) ... 6.61
CCCCC/C=C\C/C=C\CCCCCCCC(=O)OCC(COC(=O)CCCCCCC/C=C\C/C=C\CCCCC)OC(=O)CCC(CCCCCCCC)OC(=O)NCCN1CCCC1 (stereo not drawn) ... 6.37
CCCCC/C=C\C/C=C\CCCCCCCC(=O)OCC(COC(=O)CCCCCCC/C=C\C/C=C\CCCCC)OC(=O)CC(CCCCCCCC)OC(=O)NCCN(C)CC (stereo not drawn) ... 6.26
CCCCC/C=C\C/C=C\CCCCCCCC(=O)OCC(COC(=O)CCCCCCC/C=C\C/C=C\CCCCC)OC(=O)CCC(CCCCCCCCCC)OC(=O)NCC1CCCN1C (stereo not drawn) ... 6.37
CCCCC/C=C\C/C=C\CCCCCCCC(=O)OCC(COC(=O)CCCCCCC/C=C\C/C=C\CCCCC)OC(=O)CCC(CCCCCC)OC(=O)NCCN(C)CC (stereo not drawn) ... 6.34

----------
assay: pKa of amine lipid by TNS fluorescence; format: physicochemical; settings: probe TNS (6-(p-toluidino)-2-naphthalenesulfonic acid sodium salt), unformulated amine lipid in ethanol, sodium phosphate buffers -9.0
Quantity name: pKa

CCCCC/C=C\C/C=C\CCCCCCCC(=O)OCC(COC(=O)CCCCCCC/C=C\C/C=C\CCCCC)OC(=O)CCC(CCCCCCCC)OC(=O)OCCCN1CCCC1 (stereo not shown) ... 6.13
CCCCC/C=C\C/C=C\CCCCCCCC(=O)OCC(COC(=O)CCCCCCC/C=C\C/C=C\CCCCC)OC(=O)CCC(CCCCCCCC)OC(=O)NCCN(CC)CC (stereo not shown) ... 6.14
CCCCC/C=C\C/C=C\CCCCCCCC(=O)OCC(COC(=O)CCCCCCC/C=C\C/C=C\CCCCC)OC(=O)CCCC(CCCCCCCCCCCC)OC(=O)OCCCN(C)CC (stereo not shown) ... 5.82
CCCCC/C=C\C/C=C\CCCCCCCC(=O)OCC(COC(=O)CCCCCCC/C=C\C/C=C\CCCCC)OC(=O)CCCC(CCCCCCCCCCCC)OC(=O)OCCCN1CCCC1 (stereo not shown) ... 5.97
CCCCC/C=C\C/C=C\CCCCCCCC(=O)OCC(COC(=O)CCCCCCC/C=C\C/C=C\CCCCC)OC(=O)CCC(CCCC)OC(=O)NCCN(C)CC (stereo not shown) ... 6.52
CCCCC/C=C\C/C=C\CCCCCCCC(=O)OCC(COC(=O)CCCCCCC/C=C\C/C=C\CCCCC)OC(=O)CCC(CCCCCCCCCCCC)OC(=O)NCCCN(CC)CC (stereo not shown) ... 7.2
CCCCC/C=C\C/C=C\CCCCCCCC(=O)OCC(COC(=O)CCCCCCC/C=C\C/C=C\CCCCC)OC(=O)CCCOC(=O)NCCN(C)CC ... 7.33
CCCCC/C=C\C/C=C\CCCCCCCC(=O)OCC(COC(=O)CCCCCCC/C=C\C/C=C\CCCCC)OC(=O)CCC(CCCCCCCCCCCC)OC(=O)OCCCN1CCCC1 (stereo not shown) ... 6.25
CCCCC/C=C\C/C=C\CCCCCCCC(=O)OCC(COC(=O)CCCCCCCC(=O)OCCCCCCCCCCC)OC(=O)CCC(CCCCCCCC)OC(=O)NCCN(C)CC (stereo not shown) ... 6.32
CCCCC/C=C\C/C=C\CCCCCCCC(=O)OCC(COC(=O)CCCCCCCC(=O)OCCCCCCCCCCC)OC(=O)CCCC(CCCCCCCC)OC(=O)NCCN(C)CC (stereo not shown) ... 6.3
CCCCC/C=C\C/C=C\CCCCCCCC(=O)OCC(COC(=O)CCCCCCC/C=C\C/C=C\CCCCC)OC(=O)CCC(CCCCCCCCCCCCCCCC)OC(=O)OCCCN(C)CC (stereo not shown) ... 5.83
CCCCCCCCCCCOC(=O)CCCCCCCC(=O)OCC(COC(=O)CCCCCCCC(=O)OCCCCCCCCCCC)OC(=O)CC(CCCCCCCC)OC(=O)NCCN(C)CC (stereo not shown) ... 6.34
CCCCC/C=C\C/C=C\CCCCCCCC(=O)OCC(COC(=O)CCCCCCC/C=C\C/C=C\CCCCC)OC(=O)CCC(CCC(C)CCCC(C)C)OC(=O)NCCN1CCCC1 (stereo not shown) ... 6.53
CCCCC/C=C\C/C=C\CCCCCCCC(=O)OCC(COC(=O)CCCCCCC/C=C\C/C=C\CCCCC)OC(=O)CCC(CCCCCC)OC(=O)OCCCN1CCC1 (stereo not shown) ... 6.75
CCCCC/C=C\C/C=C\CCCCCCCC(=O)OCC(COC(=O)CCCCCCC/C=C\C/C=C\CCCCC)OC(=O)CCC(CCCCCCCCCCCC)OC(=O)OCCCCN(CC)CC (stereo not shown) ... 5.91
CCCCC/C=C\C/C=C\CCCCCCCC(=O)OCC(COC(=O)CCCCCCC/C=C\C/C=C\CCCCC)OC(=O)CCC(CCCCC)OC(=O)NCCN(C)CC (stereo not shown) ... 6.44

----------
test: pKa of amine lipid by TNS fluorescence; format: physicochemical; settings: probe TNS (6-(p-toluidino)-2-naphthalenesulfonic acid sodium salt), unformulated amine lipid in ethanol, sodium phosphate buffers -9.0
Quantity name: pKa

CCCCC/C=C\C/C=C\CCCCCCCC(=O)OCC(COC(=O)CCCCCCC/C=C\CCCCCCCC)OC(=O)CCC(CCCC)OC(=O)NCCN1CCCC1 (stereo not drawn) ... 6.91
CCCCCCCC/C=C\CCCCCCCC(=O)OCC(COC(=O)CCCCCCC/C=C\CCCCCCCC)OC(=O)CCC(CCCC)OC(=O)NCCN1CCCC1 (stereo not drawn) ... 7.01
CCCCC/C=C\C/C=C\CCCCCCCC(=O)OCC(COC(=O)CCCCCCC/C=C\C/C=C\CCCCC)OC(=O)CC[C@@H](CCCCCC)OC(=O)NCCN1CCCC1 ... 6.8

----------
test: pKa of amine lipid by TNS fluorescence; type: physicochemical; settings: probe TNS (6-(p-toluidino)-2-naphthalenesulfonic acid sodium salt), unformulated amine lipid in ethanol, sodium phosphate buffers -9.0
Quantity name: pKa

CCCCC/C=C\C/C=C\CCCCCCCC(=O)OCC(COC(=O)CCCCCCC/C=C\C/C=C\CCCCC)COC(=O)C(C)(C)C(CCCCCCCC)OC(=O)NCCN(C)CC (stereo not drawn) ... 5.96
CCCCC/C=C\C/C=C\CCCCCCCC(=O)OCC(COC(=O)CCCCCCC/C=C\C/C=C\CCCCC)OC(=O)CCCC(CCCCCCCCCCCC)OC(=O)NCCN(C)CC (stereo not drawn) ... 6.06
CCCCC/C=C\C/C=C\CCCCCCCC(=O)OCC(COC(=O)CCCCCCC/C=C\C/C=C\CCCCC)OC(=O)CCC(CCCCCCCCCCCCCCCC)OC(=O)NCCN(C)CC (stereo not drawn) ... 6.17
